measurement.label: logP

{"columns": ["smiles.repr", "readout.value"],
 "data": [
  ["CCCCCCCCCCOc1ccc(C(=O)O)cc1", 5.77]
]}

* * *

- assay.notes: method code SF, from DOI: 10.1016/0378-5173(90)90261-2
- condition.label: pH 3.0

{"columns": ["smiles.repr", "logD"],
 "data": [
  ["O=C(O)CCCc1ccccc1", 2.32]
]}

* * *

{"columns": ["smiles.repr", "logP"],
 "data": [
  ["CCOCCO", -0.28]
]}

* * *

- assay.notes: method code RP-TLC, from DOI: 10.1016/s0021-9673(03)00617-4, PMID: 12830921
measurement.label: logP

{"columns": ["smiles.repr", "measurement.label", "readout.value"],
 "data": [
  ["CCOC(=O)C1=C[C@]2(CC)CCCN3CCc4c(n1c1ccccc41)[C@@H]32", "logP", 4.23]
]}

* * *

Entries and their logP
measurement.label: logP

{"columns": ["smiles.repr", "measurement.label", "readout.value"],
 "data": [
  ["Nc1ncnc2nn[nH]c12", "logP", -0.96],
  ["O=c1[nH]cnc2c1ncn2[C@@H]1O[C@H](CO)[C@@H](O)[C@H]1O", "logP", -1.81]
]}

* * *

{"columns": ["smiles.repr", "logP"],
 "data": [
  ["O=C(NC1CCCCCCC1)NS(=O)(=O)c1cnccc1Nc1cccc(C(F)(F)F)c1", 2.29]
]}

* * *

- assay.notes: method code SF-AS, from DOI: 10.1016/0006-2952(81)90362-2, PMID: 7271838
- condition.label: pH 7.5
compounds and their reported logD

{"columns": ["smiles.repr", "logD"],
 "data": [
  ["CCCCOC(=O)c1ccc(O)cc1", 3.32],
  ["CCCCOC(=O)c1ccc(N)cc1", 3.05]
]}

* * *

- assay.notes: method code SF-GLC, from PMID: 6629728
- condition.label: pH 7.4
measurement.label: logD

{"columns": ["compound", "measurement.label", "readout.value"],
 "data": [
  ["C1CCC(C2CO2)CC1 (stereo unspecified)", "logD", 2.43]
]}

* * *

- assay.notes: method code SF, from DOI: 10.1021/jm000996o, PMID: 11087582
- condition.label: pH 7.2

{"columns": ["compound", "logD"],
 "data": [
  ["Cc1cn(C2CC(N=[N+]=[N-])C(COP(=O)(OCCSC(=O)C(C)(C)C)OCCSC(=O)C(C)(C)C)O2)c(=O)[nH]c1=O (stereo unspecified)", 3.73]
]}

* * *

{"columns": ["smiles.repr", "logP"],
 "data": [
  ["Cn1c(C(F)(F)F)nc2ccccc21", 3.98]
]}

* * *

- assay.notes: method code SF, from DOI: 10.1584/jpestics.12.445
Examples of compounds with documented logP follow.

{"columns": ["smiles.repr", "logP"],
 "data": [
  ["C=C(c1ccccc1OCCCCCO)n1ccnc1", 2.89],
  ["C=CCOc1ccccc1C(=C)n1ccnc1", 2.74]
]}

* * *

- assay.notes: method code SF-RC, from PMID: 3794812

{"columns": ["molecule", "logP"],
 "data": [
  ["COCC(O)Cn1c([N+](=O)[O-])nc(Br)c1Br (configuration not stated)", 1.02],
  ["COCC(O)Cn1c(Br)cnc1[N+](=O)[O-] (configuration not stated)", 0.16]
]}

* * *

Below, each entry is listed alongside its reported logD.
- assay.notes: method code SF, from DOI: 10.1021/jm00237a002, PMID: 1133810
- condition.label: pH 7.2

{"columns": ["smiles.repr", "logD"],
 "data": [
  ["CC(C)Oc1cnc(NS(=O)(=O)c2ccccc2)nc1", 0.86],
  ["CCCOc1cnc(NS(=O)(=O)c2ccccc2)nc1", 1.14],
  ["CCCCOc1cnc(NS(=O)(=O)c2ccccc2)nc1", 1.41]
]}

* * *

- assay.notes: method code SF, from DOI: 10.1016/0360-3016(92)90876-j, PMID: 1735696
- condition.label: pH 7.4
Measured logD, listed per entry.

{"columns": ["smiles.repr", "logD"],
 "data": [
  ["CONC(=O)CCCn1ccnc1[N+](=O)[O-]", -0.74],
  ["O=C(CCCn1ccnc1[N+](=O)[O-])NO", -1.11],
  ["CN(O)C(=O)Cn1ccnc1[N+](=O)[O-]", -0.74]
]}

* * *

Listing of entries alongside the reported logP.
measurement.label: logP

{"columns": ["smiles.repr", "readout.value"],
 "data": [
  ["COc1ccc(CN2CCN(c3ccccc3)CC2)c(OC)c1OC", 3],
  ["Fc1ccc(C(c2ccc(F)cc2)N2CCN(C/C=C/c3ccccc3)CC2)cc1", 4.83],
  ["CCCCOc1cc(C(=O)NCCN(CC)CC)c2ccccc2n1", 4.19]
]}

* * *

Listed here are molecules together with their documented logD.
- assay.notes: method code SF-AS, from PMID: 8053967
- condition.label: pH 7.4
measurement.label: logD

{"columns": ["molecule", "readout.value"],
 "data": [
  ["O=C(CCN1CCOCC1)CN1C(=O)CC2(CCc3ccccc32)C1=O (configuration not stated)", 1.26],
  ["O=C(CCN1CCOCC1)CN1C(=O)CC2(CCCc3ccccc32)C1=O (configuration not stated)", 1.63]
]}

* * *

- assay.notes: method code SF-RC, from DOI: 10.1021/jm201482p, PMID: 22339166
- condition.label: pH 6.8
logD values, listed per item

{"columns": ["smiles.repr", "logD"],
 "data": [
  ["Cc1cccc2c1O[P@](=O)(OC[C@H]1O[C@@H](n3cc(I)c(=O)[nH]c3=O)C[C@@H]1O)OC2", 0.85],
  ["O=c1[nH]c(=O)n([C@H]2C[C@H](O)[C@@H](CO[P@]3(=O)OCc4ccccc4O3)O2)cc1I", 0.65]
]}

* * *

- assay.notes: method code SF, from DOI: 10.4103/0250-474x.119813, PMID: 24302794
- condition.label: pH 7.4

{"columns": ["molecule", "logD"],
 "data": [
  ["CCc1cccc2c3c([nH]c12)C(CC)(CC(=O)N[C@@H](C=O)[C@@H](O)[C@H](O)[C@H](O)CO)OCC3 (stereo partly specified)", 1.35]
]}

* * *

Entries annotated with measured logD
- assay.notes: method code SF-AS, from DOI: 10.1016/0378-5173(85)90003-1
- condition.label: pH 4.6
measurement.label: logD

{"columns": ["compound", "readout.value"],
 "data": [
  ["Cn1nnnc1SCC1=C(C(=O)OCOC(=O)C(C)(C)C)N2C(=O)C(NC(=O)Cc3csc(N)n3)C2SC1 (configuration not stated)", 1.36],
  ["CC(=O)OCC1=C(C(=O)OCOC(=O)C(C)(C)C)N2C(=O)C(NC(=O)Cc3cccs3)C2SC1 (configuration not stated)", 1.57]
]}

* * *

measurement.label: logP

{"columns": ["molecule", "measurement.label", "readout.value"],
 "data": [
  ["Cc1cccc2sc3nncn3c12", "logP", 2.07],
  ["CNC(=O)O/N=C/C(C)(C)SC", "logP", 1.19],
  ["CCCOC(=O)NCCCN(C)C", "logP", 2.43],
  ["COP(=O)(NC(C)=O)SC (centres undefined)", "logP", -0.46]
]}

* * *

# logD listing for each entry below
- assay.notes: method code SF-RC, from DOI: 10.1016/j.bmcl.2015.05.048, PMID: 26073008
- condition.label: pH 7.4

{"columns": ["smiles.repr", "logD"],
 "data": [
  ["COc1ccc(/C=C/c2cc(=O)c3cc(I)ccc3o2)cc1", 2.15],
  ["O=c1cc(/C=C/c2ccc(O)cc2)oc2ccc(I)cc12", 1.87]
]}

* * *

- assay.notes: method code SF-RC, from DOI: 10.1016/j.bmc.2015.06.036, PMID: 26145817
- condition.label: pH 7.4
# maps each entry to its logD
measurement.label: logD

{"columns": ["smiles.repr", "measurement.label", "readout.value"],
 "data": [
  ["Cc1cc(N(C)CCCCF)n2nc(C)c(-c3ccc(Cl)cc3Cl)c2n1", "logD", 2.75],
  ["Cc1cc(N(C)CCOCCF)n2nc(C)c(-c3ccc(Cl)cc3Cl)c2n1", "logD", 2.3]
]}

* * *

- assay.notes: method code SF, from DOI: 10.1002/ps.2780290303
- condition.label: pH 5.0
measurement.label: logD

{"columns": ["smiles.repr", "measurement.label", "readout.value"],
 "data": [
  ["COC(=O)c1sccc1S(=O)(=O)NC(=O)Nc1nc(OC)nc(OC)n1", "logD", 0.52]
]}

* * *

{"columns": ["smiles.repr", "logP"],
 "data": [
  ["CN1CCN(c2ncc(-c3ccncc3)cc2C#N)CC1", 2.96],
  ["Cc1nc(NCCN)c(C#N)cc1-c1ccncc1", 1.91]
]}
